// data source = ChEMBL document CHEMBL1147910

# protocol text: Cmax in BALB/c mouse at 90 mg/kg, po
# Assay type: ADME, organism-based
# Design: dose 90 mg/kg, route oral
# stated conditions: in vivo
reported property: Cmax (µM)
Give the value, in units of µM, as a plain number.

Reported Cmax of Fc1cccc(Cn2ncc3cc(Nc4ncnn5ccc(CN6CCCNCC6)c45)ccc32)c1 : 7.95

====

# protocol text: Drug level in BALB/c mouse plasma at 50 mg/kg, po after 4 hrs
# Type: ADME, organism-based
# Set-up: dose 50 mg/kg, route oral
reported property: concentration at 4 h (nM)
Give the value, in units of nM, as a plain number.

Example entries and their recorded answers appear below.
[[record]]
molecule = "Cc1ccn2ncnc(Nc3ccc4c(cnn4Cc4cccc(F)c4)c3)c12"
reported_property = "concentration at 4 h"
display_unit = "nM"
reported_value = 4100

[[record]]
molecule = "CN1CCN(Cc2ccn3ncnc(Nc4ccc5c(cnn5Cc5cccc(F)c5)c4)c23)CC1"
reported_property = "concentration at 4 h"
display_unit = "nM"
reported_value = 480

[[record]]
molecule = "O[C@H]1CNCCN(Cc2ccn3ncnc(Nc4ccc5c(cnn5Cc5cccc(F)c5)c4)c23)C1"
reported_property = "concentration at 4 h"
display_unit = "nM"
reported_value = 1510


Reported concentration at 4 h of COC(=O)C1CCN(Cc2ccn3ncnc(Nc4ccc5c(cnn5Cc5cccc(F)c5)c4)c23)CC1 : 27

Reported concentration at 4 h of Fc1cccc(Cn2ncc3cc(Nc4ncnn5ccc(CN6CCNCC6)c45)ccc32)c1 : 6300

Reported concentration at 4 h of OC1CCN(Cc2ccn3ncnc(Nc4ccc5c(cnn5Cc5cccc(F)c5)c4)c23)CC1 : 250

Reported concentration at 4 h of O[C@@H]1CNCCN(Cc2ccn3ncnc(Nc4ccc5c(cnn5Cc5cccc(F)c5)c4)c23)C1 : 880

Reported concentration at 4 h of Fc1cccc(Cn2ncc3cc(Nc4ncnn5ccc(CN6CCCNCC6)c45)ccc32)c1 : 1300

Reported concentration at 4 h of O=C1CCN(Cc2ccn3ncnc(Nc4ccc5c(cnn5Cc5cccc(F)c5)c4)c23)CCN1 : 44

====

# protocol text: Metabolic stability in mouse liver microsomes at 3 uM in presence of NADPH after 10 min
# Assay type: ADME, Microsome
Examples of molecules with documented metabolic rate follow.
Give the value, in units of nmol/min/mg, as a plain number.

[[record]]
molecule = "O[C@H]1CNCCN(Cc2ccn3ncnc(Nc4ccc5c(cnn5Cc5cccc(F)c5)c4)c23)C1"
display_unit = "nmol/min/mg"
reported_value = 0.12

[[record]]
molecule = "O=C(O)C1CCN(Cc2ccn3ncnc(Nc4ccc5c(cnn5Cc5cccc(F)c5)c4)c23)CC1"
display_unit = "nmol/min/mg"
reported_value = 0.23

[[record]]
molecule = "Fc1cccc(Cn2ncc3cc(Nc4ncnn5ccc(CN6CCCNCC6)c45)ccc32)c1"
display_unit = "nmol/min/mg"
reported_value = 0.05


Next item in the queue.
Reported metabolic rate of CC1CNCCN(Cc2ccn3ncnc(Nc4ccc5c(cnn5Cc5cccc(F)c5)c4)c23)C1 (centres undefined) : 0
